Taken from PubChem BioAssay (EPA / NIEHS).

Read-out: urokinase plasminogen activator (uPA), PLAU (gene 5328)
experiment description: BSK_BE3C_uPA: BioMAP Diversity Plus: BE3C Assay for urokinase plasminogen activator (uPA) Biomarker Activity (AID 2283038);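 further: uPA protein level quantified by ELISA in cell cultures; uPA read one day after compound addition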
measurement conditions: primary human bronchial epithelial cells; actives raise or lower the signal
Method: BSK_BE3C is a cell-based, multiplexed-readout assay that uses bronchial epithelial cell, a human lung primary cell, with measurements taken at 24 hours after chemical dosing in a 96-well plate.BSK_BE3CA is an assay component measured in the BSK_BE3C assay. It measures uPA antibody related to regulation of gene expression using ELISA technology.Data from the assay component BSK_BE3CA was analyzed into 1 assay endpoint. […]
The source made the active and inactive calls. How the source made its calls: active means hit-call score of the fitted dose curve at least 0.9, where 1 is the maximum; inactive means score below 0.9.
measurement type: outcome

compound=COC(=O)c1ccccc1S(=O)(=O)NC(=O)N(C)c1nc(C)nc(OC)n1 endpoint_value=inactive
compound=CC(C)N(C(=O)COc1nnc(C(F)(F)F)s1)c1ccc(F)cc1 endpoint_value=inactive
compound=CNC(=O)Oc1cccc(N=CN(C)C)c1 endpoint_value=inactive
compound=CNC(=O)CSP(=S)(OC)OC endpoint_value=inactive
compound=Cc1cc(C)nc(NC(=O)NS(=O)(=O)c2ccccc2C(=O)OC2COC2)n1 endpoint_value=inactive
compound="CC1(c2ccc(Oc3ccccc3)cc2)OC(=O)N(Nc2ccccc2)C1=O (configuration not stated)" endpoint_value=inactive
compound=CCOc1nc(NC)nc(NC(=O)NS(=O)(=O)c2ccccc2C(=O)OC)n1 endpoint_value=inactive

----------
Read-out: Human Leukocyte Antigen - DR isotype (HLADR), HLA-DRA (gene 3122)
experiment description: BSK_3C_HLADR: BioMAP Diversity Plus: 3C Assay for Human Leukocyte Antigen - DR isotype (HLADR) Biomarker Activity (AID 2283019)
measurement conditions: primary human endothelial cells (HUVEC); actives raise or lower the signal
Method: BSK_3C is a cell-based, multiplexed-readout assay that uses umbilical vein endothelium, a human vascular primary cell, with measurements taken at 24 hours after chemical dosing in a 96-well plate.BSK_3C_HLADR is an assay component measured in the BSK_3C assay. It measures HLA-DR antibody related to regulation of gene expression using ELISA technology.Data from the assay component BSK_3C_HLADR was analyzed into 1 assay endpoint. […]
Calls of active or inactive are those of the source. The calls were made as follows: active = hit-call score of the fitted dose curve at least 0.9, where 1 is the maximum; inactive = score below 0.9.
measurement type: AC50

molecule="CCC(C)Nc1c([N+](=O)[O-])cc(C(C)(C)C)cc1[N+](=O)[O-] (configuration not stated)" endpoint_value="20 µM (active)"
molecule="CCOC1Oc2ccc(OS(C)(=O)=O)cc2C1(C)C (configuration not stated)" endpoint_value="23 µM (active)"
molecule=CCOCN(C(=O)CCl)c1c(C)cccc1CC endpoint_value="20 µM (active)"
molecule=CNC(=O)Oc1cccc(N=CN(C)C)c1 endpoint_value="18.2 µM (active)"
molecule=O=C(Nc1ccccc1)Nc1cnns1 endpoint_value="36.1 µM (active)"
molecule="CC1(C)C(C=C(Cl)Cl)C1C(=O)OC(C#N)c1ccc(F)c(Oc2ccccc2)c1 (configuration not stated)" endpoint_value=inactive
molecule=COP(=S)(OC)Oc1ccc(SC)c(C)c1 endpoint_value=inactive

----------
Read-out: Matrix Metallopeptidase 9 (MMP9), MMP9 (gene 4318)
experiment description: BSK_KF3CT_MMP9: BioMAP Diversity Plus: KF3CT Assay for Matrix Metallopeptidase 9 (MMP9) Biomarker Activity (AID 2283074)
measurement conditions: primary human keratinocytes with fibroblasts; actives raise or lower the signal
Procedure: BSK_KF3CT is a cell-based, multiplexed-readout assay that uses keratinocytes and foreskin fibroblasts, a human skin primary cell co-culture, with measurements taken at 24 hours after chemical dosing in a 96-well plate.BSK_KF3CT_MMP9 is an assay component measured in the BSK_KF3CT assay. It measures MMP-9 antibody related to regulation of gene expression using ELISA technology.Data from the assay component BSK_KF3CT_MMP9 was analyzed into 1 assay endpoint. […]
Calls of active or inactive are those of the source. Rule for the calls: active = hit-call score of the fitted dose curve at least 0.9, where 1 is the maximum; inactive = score below 0.9.
Outcomes: active, inactive

compound=CNC(=O)CSP(=S)(OC)OC class_name=inactive
compound=COc1cc(OC)nc(NC(=O)NS(=O)(=O)c2cc(NC=O)ccc2C(=O)N(C)C)n1 class_name=inactive
compound=O=C(O)CCCOc1ccc(Cl)cc1Cl class_name=inactive
compound=CC(C)N(C(=O)COc1nnc(C(F)(F)F)s1)c1ccc(F)cc1 class_name=inactive
compound="CC(C)(C)C(O)C(Oc1ccc(Cl)cc1)n1cncn1 (stereo not drawn)" class_name=inactive
compound="CC[C@H](C)[C@H]1O[C@]2(C=C[C@@H]1C)C[C@@H]1C[C@@H](C/C=C(\\C)[C@@H](O[C@H]3C[C@H](OC)[C@@H](O[C@H]4C[C@H](OC)[C@@H](O)[C@H](C)O4)[C@H](C)O3)[C@@H](C)/C=C/C=C3\\CO[C@@H]4[C@H](O)C(C)=C[C@@H](C(=O)O1)[C@]34O)O2 (tested in a mixture with another compound)" class_name=active
compound=O=[N+]([O-])c1c(Cl)c(Cl)c(Cl)c(Cl)c1Cl class_name=active
compound=CCOc1nc(NC)nc(NC(=O)NS(=O)(=O)c2ccccc2C(=O)OC)n1 class_name=active
compound=Clc1ccccc1-c1nnc(-c2ccccc2Cl)nn1 class_name=inactive
compound=CC(C)OC(=O)Nc1cccc(Cl)c1 class_name=inactive
compound=C#CCN1C(=O)COc2cc(F)c(N3C(=O)C4=C(CCCC4)C3=O)cc21 class_name=inactive
compound="O=S1OCC2C(CO1)C1(Cl)C(Cl)=C(Cl)C2(Cl)C1(Cl)Cl (stereo not drawn)" class_name=active
compound="CC1(C)C(C=C(Cl)Cl)C1C(=O)OC(C#N)c1ccc(F)c(Oc2ccccc2)c1 (stereo not drawn)" class_name=inactive

----------
experiment description: BSK_SAg_Proliferation: Cell Proliferation Assessment in the BioMAP Diversity Plus: SAg Assay (AID 2283095);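 further: relative cell number as total protein by SRB absorbance in sub-confluent culture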
measurement conditions: primary human HUVEC with PBMC
Activity calls are given as the source filed them. How the source made its calls: active means hit-call score of the fitted dose curve at least 0.9, where 1 is the maximum; inactive means score below 0.9.
measurement type: AC50

compound="ClC1C(Cl)C(Cl)C(Cl)C(Cl)C1Cl (configuration not stated)" endpoint_value=inactive
compound="CCOC1Oc2ccc(OS(C)(=O)=O)cc2C1(C)C (configuration not stated)" endpoint_value=inactive
compound="O=S1OCC2C(CO1)C1(Cl)C(Cl)=C(Cl)C2(Cl)C1(Cl)Cl (configuration not stated)" endpoint_value="14.2 µM (active)"
compound="CC[C@H](C)[C@H]1O[C@]2(C=C[C@@H]1C)C[C@@H]1C[C@@H](C/C=C(\\C)[C@@H](O[C@H]3C[C@H](OC)[C@@H](O[C@H]4C[C@H](OC)[C@@H](O)[C@H](C)O4)[C@H](C)O3)[C@@H](C)/C=C/C=C3\\CO[C@@H]4[C@H](O)C(C)=C[C@@H](C(=O)O1)[C@]34O)O2 (tested in a mixture with another compound)" endpoint_value="4.56 µM (active)"
compound=COP(=S)(OC)Oc1ccc([N+](=O)[O-])cc1 endpoint_value="21.9 µM (active)"
compound=C#CCN1C(=O)COc2cc(F)c(N3C(=O)C4=C(CCCC4)C3=O)cc21 endpoint_value=inactive
compound="CC1(c2ccc(Oc3ccccc3)cc2)OC(=O)N(Nc2ccccc2)C1=O (configuration not stated)" endpoint_value="16.9 µM (active)"

----------
Read-out: Vascular cell adhesion molecule 1 (VCAM1), VCAM1 (gene 7412)
experiment description: BSK_hDFCGF_VCAM1: BioMAP Diversity Plus: hDFCGF Assay for Vascular cell adhesion molecule 1 (VCAM1) Biomarker Activity (AID 2283065)
measurement conditions: primary human foreskin fibroblasts; actives raise or lower the signal
The source made the active and inactive calls. The calls were made as follows: active = hit-call score of the fitted dose curve at least 0.9, where 1 is the maximum; inactive = score below 0.9.
Classes used: y (active), n (inactive)

compound=COc1nn(CSP(=S)(OC)OC)c(=O)s1 class_name=n
compound=Cc1cc(C)nc(NC(=O)NS(=O)(=O)c2ccccc2C(=O)OC2COC2)n1 class_name=n
compound=O=[N+]([O-])/N=C1\NCCN1Cc1ccc(Cl)nc1 class_name=n
compound=CNC(=O)Oc1ccccc1OC(C)C class_name=n
compound=N#Cc1c(Cl)c(Cl)c(Cl)c(C#N)c1Cl class_name=y
compound="O=S1OCC2C(CO1)C1(Cl)C(Cl)=C(Cl)C2(Cl)C1(Cl)Cl (configuration not stated)" class_name=y
compound=COC(=O)c1ccccc1CS(=O)(=O)NC(=O)Nc1nc(OC)cc(OC)n1 class_name=n
compound=CC(C)N(C(=O)COc1nnc(C(F)(F)F)s1)c1ccc(F)cc1 class_name=y
compound="ClC1C(Cl)C(Cl)C(Cl)C(Cl)C1Cl (configuration not stated)" class_name=n
compound=O=C(O)CCCOc1ccc(Cl)cc1Cl class_name=n
compound=CN1CSC(=S)N(C)C1 class_name=y
compound="CCOC1Oc2ccc(OS(C)(=O)=O)cc2C1(C)C (configuration not stated)" class_name=n
compound=CC(C)OC(=O)Nc1cccc(Cl)c1 class_name=n
compound=COP(=S)(OC)Oc1ccc(SC)c(C)c1 class_name=n
compound=O=[N+]([O-])c1c(Cl)c(Cl)c(Cl)c(Cl)c1Cl class_name=y
compound="CCC(C)Nc1c([N+](=O)[O-])cc(C(C)(C)C)cc1[N+](=O)[O-] (configuration not stated)" class_name=y
compound=COc1cc(OC)nc(NC(=O)NS(=O)(=O)c2cc(NC=O)ccc2C(=O)N(C)C)n1 class_name=n
compound=COP(=S)(OC)Oc1ccc([N+](=O)[O-])cc1 class_name=n
compound=O=C1c2ccccc2C(=O)N1SC(Cl)(Cl)Cl class_name=n
compound=COC(=O)c1ccccc1S(=O)(=O)NC(=O)Nc1nc(C)nc(OC)n1 class_name=n
compound="CC(C)(C)C(O)C(Oc1ccc(Cl)cc1)n1cncn1 (configuration not stated)" class_name=n
compound=O=C(Nc1ccccc1)Nc1cnns1 class_name=n
compound=O=C(O)C(F)(F)C(F)(F)C(F)(F)C(F)(F)C(F)(F)C(F)(F)C(F)(F)F class_name=n
compound=Oc1cc(Cl)ccc1Oc1ccc(Cl)cc1Cl class_name=y
compound=OCCOc1ccccc1 class_name=n
compound=CCc1ccc(C(=O)NN(C(=O)c2cc(C)cc(C)c2)C(C)(C)C)cc1 class_name=n
compound=CCCN(CCOc1c(Cl)cc(Cl)cc1Cl)C(=O)n1ccnc1 class_name=n
